// data source = patent US20230235054A1

- measuredTarget: T1, RatNectin4-His (rat, UniProt D3ZET1 31-348)
- T1 construct: Immobilized on the SPR chip; not shown: His tag
- T1 sequence: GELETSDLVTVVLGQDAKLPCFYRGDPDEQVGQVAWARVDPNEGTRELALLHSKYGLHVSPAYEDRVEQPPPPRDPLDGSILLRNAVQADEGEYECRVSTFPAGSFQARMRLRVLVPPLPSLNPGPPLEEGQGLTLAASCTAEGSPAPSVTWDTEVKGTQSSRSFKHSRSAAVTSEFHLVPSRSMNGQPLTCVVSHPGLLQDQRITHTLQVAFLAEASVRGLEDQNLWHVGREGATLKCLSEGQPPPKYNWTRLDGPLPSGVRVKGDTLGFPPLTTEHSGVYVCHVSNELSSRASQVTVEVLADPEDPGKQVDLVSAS
- testDescription: SPR, RatNectin4-His immobilized, pH 6.5
propertyLabel: pKd
A value of pKd is the negative decimal logarithm of a concentration given in moles per litre.

// worked examples, pKd included
{"binder": "BAP-143-06-24-16 (antibody, V domains shown, Used as a conjugate with a linker payload (CAB ADC)) VH: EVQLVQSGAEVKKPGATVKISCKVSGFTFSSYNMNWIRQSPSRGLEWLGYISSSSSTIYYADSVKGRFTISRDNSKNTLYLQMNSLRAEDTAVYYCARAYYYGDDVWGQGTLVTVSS VL: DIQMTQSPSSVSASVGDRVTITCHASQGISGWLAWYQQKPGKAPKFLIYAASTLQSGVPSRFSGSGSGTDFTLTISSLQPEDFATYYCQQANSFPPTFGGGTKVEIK", "pKd": 10.42}
{"binder": "BAP-143-06-33-16 (antibody, V domains shown, Used as a conjugate with a linker payload (CAB ADC)) VH: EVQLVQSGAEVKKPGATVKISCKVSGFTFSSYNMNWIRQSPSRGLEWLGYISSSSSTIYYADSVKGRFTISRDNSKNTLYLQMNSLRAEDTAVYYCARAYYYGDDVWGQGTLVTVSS VL: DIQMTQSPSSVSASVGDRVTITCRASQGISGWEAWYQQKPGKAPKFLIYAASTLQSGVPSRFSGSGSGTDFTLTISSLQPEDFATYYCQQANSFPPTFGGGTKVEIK", "pKd": 10.00}
{"binder": "BAP-143-00-01 (antibody, V domains shown, Used as a conjugate with a linker payload (CAB ADC)) VH: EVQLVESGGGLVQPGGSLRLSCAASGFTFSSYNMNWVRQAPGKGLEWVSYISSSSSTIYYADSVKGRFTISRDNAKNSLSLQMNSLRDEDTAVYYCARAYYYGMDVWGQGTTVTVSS VL: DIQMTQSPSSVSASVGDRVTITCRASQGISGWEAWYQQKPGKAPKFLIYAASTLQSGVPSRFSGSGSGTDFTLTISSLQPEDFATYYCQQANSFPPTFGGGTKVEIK", "pKd": 8.87}
{"binder": "BAP-143-07-03-12 (antibody, V domains shown, Used as a conjugate with a linker payload (CAB ADC)) VH: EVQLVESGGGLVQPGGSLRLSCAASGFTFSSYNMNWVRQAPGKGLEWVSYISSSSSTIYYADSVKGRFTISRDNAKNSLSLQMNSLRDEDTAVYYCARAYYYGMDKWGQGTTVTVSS VL: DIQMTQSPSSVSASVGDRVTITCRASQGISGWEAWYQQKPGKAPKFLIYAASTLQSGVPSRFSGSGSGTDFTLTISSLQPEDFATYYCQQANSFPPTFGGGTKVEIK", "pKd": 8.96}

Turning now to a further record.
Task: Field request: pKd | item: BAP-143-wildtype (antibody, V domains shown, 150 kDa used in SPR; also called BAP143-00-00; benchmark (BM)) VH: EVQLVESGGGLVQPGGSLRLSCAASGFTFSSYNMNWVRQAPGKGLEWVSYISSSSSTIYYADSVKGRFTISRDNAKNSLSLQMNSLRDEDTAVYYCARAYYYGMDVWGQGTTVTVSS VL: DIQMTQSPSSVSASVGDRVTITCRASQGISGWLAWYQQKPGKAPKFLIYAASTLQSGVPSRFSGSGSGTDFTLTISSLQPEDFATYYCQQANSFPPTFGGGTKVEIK
Result: 9.97
